Listing of recorded Ki by entry.
Biological target: D(4) dopamine receptor (Homo sapiens, UniProt P21917)
Sequence (P21917 whole entry): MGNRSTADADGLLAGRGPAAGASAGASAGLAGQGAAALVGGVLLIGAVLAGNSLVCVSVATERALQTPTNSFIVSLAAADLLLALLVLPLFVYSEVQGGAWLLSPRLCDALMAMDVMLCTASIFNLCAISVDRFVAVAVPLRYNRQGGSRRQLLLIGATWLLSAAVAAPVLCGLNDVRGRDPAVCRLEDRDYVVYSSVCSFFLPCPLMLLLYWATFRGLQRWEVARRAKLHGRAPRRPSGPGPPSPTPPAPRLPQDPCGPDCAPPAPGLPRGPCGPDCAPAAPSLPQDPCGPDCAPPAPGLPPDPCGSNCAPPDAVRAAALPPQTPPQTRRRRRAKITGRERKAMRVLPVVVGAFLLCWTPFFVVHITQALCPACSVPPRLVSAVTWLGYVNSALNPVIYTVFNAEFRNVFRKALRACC
REPORTED METRIC: Ki (nM)

• c1ccc(C2CCN(Cc3c[nH]c4ccccc34)CC2)cc1 = 25
• OC1(c2ccc(Cl)cc2)CCN(Cc2c[nH]c3ccccc23)CC1 = 220
• CC1CCN(Cc2c[nH]c3ccccc23)CC1 = 570
• c1ccc(N2CCN(Cc3c[nH]c4ccccc34)CC2)cc1 = 8

###

Here's what we have: pKi numbers for D(3) dopamine receptor (Homo sapiens).
pKi: −log10 of the molar value.
REPORTED METRIC: pKi

• OC1(c2ccc(Cl)cc2)CCN(Cc2c[nH]c3ccccc23)CC1 = 7.00
• c1ccc(N2CCN(Cc3c[nH]c4ccccc34)CC2)cc1 = 6.55
• CC1CCN(Cc2c[nH]c3ccccc23)CC1 = 5.17
• c1ccc(C2CCN(Cc3c[nH]c4ccccc34)CC2)cc1 = 7.02
